- test_protocol: Apparent permeability across apical to basolateral side in human Caco2 cells at pH 7.4 by LC/MS/MS analysis
- condition_description: Caco-2, pH 7.4
Here the recorded Papp A→B is given for each entry.

smiles_structure	Papp A→B (×10⁻⁶ cm/s)
Cc1ccc(NC(=O)c2cccc(C(F)(F)F)c2)cc1-c1cc(N2CCOCC2)ncn1	19
Cc1ncc(NC(=O)c2ccnc(C(F)(F)F)c2)cc1-c1cc(N2CCOCC2)c(=O)n(C)c1	3
Cc1ccc(NC(=O)c2cccc(C(F)(F)F)c2)cc1-c1cn(C)c(=O)c(N2CCOCC2)n1	21
Cc1ncc(NC(=O)c2cccc(C(F)(F)F)c2)cc1-c1cc(N2CCOCC2)c(=O)n(C)c1	7

----------
- test_protocol: Cmax in dog at 1 mg/kg, po
- Assay type: ADME, organism-based, Canis lupus familiaris
- Design: dose 1 mg/kg, route oral
- condition_description: in vivo

smiles_structure	unit_symbol	Cmax
Cc1ncc(NC(=O)c2cccc(C(F)(F)F)c2)cc1-c1cnc(OC2CCOCC2)c(N2CCOCC2)c1	nM	500

----------
- test_protocol: AUC (infinity) in dog at 1 mg/kg, po
- Type: ADME, organism-based, Canis lupus familiaris
- Set-up: dose 1 mg/kg, time infinity, route oral
- condition_description: in vivo
reported_endpoint: AUC(0-inf) (µM·h)

smiles_structure	unit_symbol	observed
Cc1ncc(NC(=O)c2cccc(C(F)(F)F)c2)cc1-c1cnc(OC2CCOCC2)c(N2CCOCC2)c1	µM·h	1

----------
- test_protocol: Cmax in rat at 10 mg/kg, po
- Assay type: ADME, organism-based
- Parameters: dose 10 mg/kg, route oral
- condition_description: in vivo
reported_endpoint: Cmax

smiles_structure	observed
Cc1ncc(NC(=O)c2cccc(C(F)(F)F)c2)cc1-c1cnc(OC2CCOCC2)c(N2CCOCC2)c1	800 nM

----------
- test_protocol: Volume of distribution at steady state in mouse at 1 mg/kg, iv or 3 mg/kg, po
- Format: ADME, organism-based
- condition_description: in vivo, read-out: Vdss

smiles_structure	Vd (L/kg)
Cc1ncc(NC(=O)c2cccc(C(F)(F)F)c2)cc1-c1cnc(OC2CCOCC2)c(N2CCOCC2)c1	1.2

----------
- test_protocol: Solubility of compound at pH 6.8 by shake-flask assay
- condition_description: buffer
Measured solubility thermodynamic, listed per entry.

smiles_structure	solubility thermodynamic
Cc1ncc(NC(=O)c2cccc(C(F)(F)F)c2)cc1-c1cnc(OC(C)C)c(N2CCOCC2)c1	< 2 µM
COc1ncc(-c2cc(NC(=O)c3cccc(C(F)(F)F)c3)cnc2C)cc1N1CCOCC1	< 2 µM
Cc1ccc(NC(=O)c2cccc(C(F)(F)F)c2)cc1-c1ccnc(N2CCOCC2)c1	< 2 µM
